- System: MS2 coat protein
- Measurement Protocol: apparent Kd, MS2 coat protein; higher = weaker binding; RNA-MaP array; theophylline 2 mM where present
- Particulars: ligand present: theophylline; designed as: OFF switch for theophylline
Answer FALSE if apparent Kd is under 90 nM, and TRUE if it is 90 nM or more.

Item UCGCACAUGAGGAUCACCCAUGUACUAGAUACCAGUGACGCGGUGCACCCUUGGCAGCUGGUGCUGAGUGAUGGUUCCCUCGGCA with apparent Kd of 90 nM or above? TRUE

###

Documented apparent Kd across a set of sequences
- Tested on: MS2 coat protein
- Measurement Protocol: apparent Kd, MS2 coat protein; higher = weaker binding; RNA-MaP array; FMN 200 µM where present
- Particulars: designed as: OFF switch for flavin mononucleotide; no ligand
Write it as a number; the unit nM goes unstated.

Could you tell me which apparent Kd is on file for UCUCUUCUGUAGAAGGCCCGACUUGUGAAGACAACAAUGCUAUAGAAGUAGGGAGGAUAUACAUGAGGAUCACCCAUGUAGGAA ? 11.6

Continue with CGACCCUGAACGAAAUCAUGCAGUCAGGAUAUACAUGAGGAUCACCCAUGUGCGUACCAACUCGUGUAGAAGGGACUUUCAGGA 15.6

Continue with CUAUGAAGAAUAGGAUAUUCGAUCAUGAGGAUAGAAGAAGGGUUACAUGAGGAUCACCCAUGUAUGCACAUGAGGAUCCCUUAG 167

###

- Tested on: MS2 coat protein
- Measurement Protocol: apparent Kd, MS2 coat protein; higher = weaker binding; RNA-MaP array
- Particulars: ligand present: tryptophan; designed as: OFF switch for tryptophan
Measured Endpoint: apparent Kd (µM)
Write it as a number; the unit µM goes unstated.

Examples with their reported apparent Kd follow.
Sequence Input | apparent Kd (µM)
AUACCACCUUCGGCCGCCACUAUGUAUGGGUUCCCAACGUUGAAGGACAUGAGGAUCACCCAUGUUAGGACCGGGAAAAGUGCCU | 0.161
GACAUAUGCUAUGCGCAGGCUACCCUCAGCCGAGGACCGGUACGGCCGCCACUCGUACUACCACAUGAGGAUCACCCAUGUUAUC | 0.0182

Then there is this sequence:
Could you tell me which apparent Kd is on file for AUAUCUUCCACGGCCGCCACUGAAUGGUGCCCAAGGUCGAUCGCAGACAUGAGGAUCACCCAUGUCAGGACCGGGUGGUACUACG ? 0.033

###

- Test system: MS2 coat protein
- Measurement Protocol: apparent Kd, MS2 coat protein; higher = weaker binding; RNA-MaP array; tryptophan 2.4 mM where present
- Particulars: ligand present: tryptophan; designed as: ON switch for tryptophan
Measured Endpoint: apparent Kd (nM)
Write it as a number; the unit nM goes unstated.

Examples with their reported apparent Kd follow.
Sequence Input | U | Value
GGUUACUCUACGGCCGCCACUGUAAAGUAAAGAUUACUGUACAUGACAUGAGGAUCACCCAUGUACAGGACCGGGUAGUGUAACC | nM | 21.5
AGAGCAUUGACGGCCGCCACUCAUGUCACAUGAGGAUCACCCAUGUGAUGGGUGAUAGCCCGGUUGAGGACCGGGUCAAUGCUCA | nM | 19.4
AACACAUGAGGAUCACCCAUGUCCAUGUACCGAGGACCGGUACGGCCGCCACUCGACAUGAGGAUCACCCAUGUUCCAUGUUGUC | nM | 149

Then there is this sequence:
Lookup: apparent Kd / MS2 coat protein / CUACAUUUGUAGAAACCGGUCAACAUUAUUCGAGGACCGGUACGGCCGCCACUCGUAUAAUUUAAUACAUGAGGAUCACCCAUGU 15.9

###

Documented apparent Kd across a set of sequences
- Test system: MS2 coat protein
- Measurement Protocol: apparent Kd, MS2 coat protein; higher = weaker binding; RNA-MaP array; tryptophan 2.4 mM where present
- Particulars: designed as: ON switch for tryptophan; no ligand
Write it as a number; the unit nM goes unstated.

Could you tell me which apparent Kd is on file for CGACUGUAAAGUCGACCGGUCAUCAAUAAUCGAGGACCGGUACGGCCGCCACUCGAUGUGAUUUCACAUGAGGAUCACCCAUGUA ? 23.9

Continue with ACGUUUUAGUCGGCCGCCACUGAUCUCAUGUUCAACAUGAGGAUCACCCAUGUACCUUUUUUUAUCAGGACCGGGACGUAAUAGA 329

Continue with AUGCAGAACACGGCCGCCACUCCAUGUAUACAUGAGGAUCACCCAUGUAAUUUGUAUUUUUUAUAGAGGACCGGGUGAAAUGCAA 33.5

Continue with AUUCAUGGAAACAUGACAUAGGGAUCUAGCCGAGGACCGGUACGGCCGCCACUCGCUUGGAGGCACAUGAGGAUCACCCAUGUUA 145

###

- Tested on: MS2 coat protein
- Measurement Protocol: apparent Kd, MS2 coat protein; higher = weaker binding; RNA-MaP array; tryptophan 2.4 mM where present
- Particulars: ligand present: tryptophan; designed as: OFF switch for tryptophan
Measured Endpoint: apparent Kd (nM)
Write it as a number; the unit nM goes unstated.

Could you tell me which apparent Kd is on file for AAUGUAUGGCACAUGAGGAUCACCCAUGUGCGAGGACCGGUACGGCCGCCACUCGGUCCUGGGAUCUUAAUACUAUACAUUAAUG ? 28.2

Continue with CGAGUGCUGUCGGCCGCCACUGCACAUGAGGAUCACCCAUGUAAAAGCUGGCUGUGACUGGUGUUCAGGACCGGGACAGGGUCUU 25.4

Continue with GGCACAUAGUCGGCCGCCACUAGAUUUUAGUGGAAUAACAUGAGGAUCACCCAUGUAUUUGGGACUAGGACCGGGACUAUGUGCC 22.2

Continue with UACUUGCUGACGGCCGCCACUAGUACAUGAGGAUCACCCAUGUACGGUCGCCCGGUGUGAUCCACUAGGACCGGGUCAGCAAGAU 124

Continue with GCCGCGGCCGGAAUAAACAUGGGUAAAUAACGAGGACCGGUACGGCCGCCACUCGAGAUAAAUAACAUGAGGAUCACCCAUGUAC 80.3

Continue with AAUGAGUGGUGGUCAAACAUGGGUGAUCAACGAGGACCGGUACGGCCGCCACUCGAUAACAUGAGGAUCACCCAUGUAAUAAUAA 202

Continue with UUGCCCAGUACGGCCGCCACUGUGUGCAGGGAGCCCAGGUCCACAUGAGGAUCACCCAUGUACAACAGGACCGGGUACUUGCAAU 10.6

Continue with GAAUAAGAAUCGGCCGCCACUCACAUGAGGAUCACCCAUGUACAUGAGGAACAUGAAAAUCACCCGAGGACCGGGAUAUAUGUUC 66.9

###

- System: MS2 coat protein
- Measurement Protocol: apparent Kd, MS2 coat protein; higher = weaker binding; RNA-MaP array
- Particulars: ligand present: flavin mononucleotide; designed as: ON switch for flavin mononucleotide
Measured Endpoint: apparent Kd

Examples with their reported apparent Kd follow.
Sequence Input | Value
UGGCCAGAACCUUUUGUGGCCACAUGAGGAUCACCCAUGUGCGAGGAUAUCCCAUCCGGUCCGGCGGAGAAGGCGCGUAUCGGC | 30.1 nM
CCAGGUUGAAUAGGAUAUCGAGUCCGUCACAUGAGGAUCACCCAUGUAUGCCAAGCUAGAGCGUGCGAGAAGGAUUAGGCCAUC | 15.5 nM

Could you tell me which apparent Kd is on file for CCGAUAAUCAAACAUGAGGAUCACCCAUGUUCUGGACGGUUCGAGGAUAUGGCACAAGGUAUCUUCCAGAAGGCGAGCCGGUGA ? 5.98 nM

Continue with ACAUGAGGAUCACCCAUGUAAACAAGGUUGGAGACCCGCAAUGAGGAUAUCAUAAAGAAACCCAAUGAGAAGGCAUGAUCACAA 17.2 nM

Continue with GCCAAGCUCUAAGGAUAUGUUCACACCGGUGAGACAGAAGGUAGUAGUGUACUGCACAUGAGGAUCACCCAUGUAAACGGAUAA 14.9 nM

Continue with GCAGGACAUGAGGAUCACCCAUGUGAUACUAUGACAGGAUAUGAUUGAAAACUUACUAGAACAGAAGGGUCGUGUA 34.5 nM

Continue with AAGGAGGAGCAAGGAUAUCAGUGUAUACGCCACAUGAGGAUCACCCAUGUCCGGAGCGAGAUUCCUGAGAAGGUGCCGCCUAGC 6.47 nM

###

- Tested on: MS2 coat protein
- Measurement Protocol: apparent Kd, MS2 coat protein; higher = weaker binding; RNA-MaP array
- Particulars: designed as: ON switch for flavin mononucleotide; no ligand
Measured Endpoint: apparent Kd (µM)
Write it as a number; the unit µM goes unstated.

Sequence Input | U | apparent Kd
GCUGAUAUCAAGAAGGCGAUCAGGGAAUAAGAGACAUGAGGAUCACCCAUGUACGCCAUUUGUAUCGAGGAUAUUGAAAAUAGG | µM | 0.0244
GGGACACAUGAGGAUCACCCAUGUUGAUGACUUUGAGGAUAUUAGCAAAUUCUGGUCCGCUAAGAAGGCAAGGAAG | µM | 0.0188
UGGCCAGAACCUUUUGUGGCCACAUGAGGAUCACCCAUGUGCGAGGAUAUCCCAUCCGGUCCGGCGGAGAAGGCGCGUAUCGGC | µM | 0.0344
AGGAAAGAAGAAGGAUAUCAGUUACGGACAUGAGGAUCACCCAUGUACGUAGGGUGAACCCUGAUUGAGAAGGUCUGUGUUUUA | µM | 0.0231
UCGGUUUGUGCAGGAUAUGCUUACACCCUAGAGGCAGAAGGGCAUAUCACAUGAGGAUCACCCAUGUACAAUCGUCCAAGGGCA | µM | 0.0298

Could you tell me which apparent Kd is on file for UGAAUACAUGAGGAUCACCCAUGUUACGACCUCACAGGAUAUCAGAUAAAGGCUCUCAUCUGAGAAGGGUGGCUCC ? 0.0633

Continue with GUGAACGUCAAAGGAUAUGUCGGAACUGCUAGAACAGAAGGUUGGGAAUCGGAUUGGUUGCACAUGAGGAUCACCCAUGUUGAG 0.443
